# method: NCI Yeast Anticancer Drug Screen. Data for the mec2-1 strain (AID 157)
# run-parameters: S. cerevisiae mec2-1 strain, at 50.0 µM (retest, dose inferred, filed as 5.0)
This is part of a sample that, as a whole, favours compounds with a hit. Of some 79,000 tested, about 15% had one in any assay. Calls of active or inactive are those of the source. No stated cut-off is given here; in the data, active means growth inhibition above about 70%; inactive means the rest.
Just give me one of these, please: active, inactive

Could you kindly confirm the outcome this assay logged for CCOC(=O)CNC(=O)C1C2c3ccccc3C(c3ccccc32)C1C(=O)O (stereo unspecified) ?
inactive

Could you kindly confirm the outcome this assay logged for CN(C=O)NC(=O)N(CCCl)N=O ?
inactive

Could you kindly confirm the outcome this assay logged for O=C(CBr)OCC(O)CCl (stereo unspecified) ?
active

Could you kindly confirm the outcome this assay logged for BrP(NC1CCCCCC1)(c1ccccc1)(c1ccccc1)c1ccccc1 ?
active

Could you kindly confirm the outcome this assay logged for Clc1ccccc1C#[C][Hg][C]#Cc1ccccc1Cl ?
active

Could you kindly confirm the outcome this assay logged for CN1C(=O)C23CC4=CC=CC(O)C4N2C(=O)C1(CO)SS3 (stereo unspecified) ?
active

Could you kindly confirm the outcome this assay logged for Nc1ccccc1C(=O)c1ccccc1 ?
inactive

Could you kindly confirm the outcome this assay logged for S=P(Nc1ccc(Cl)cc1)(Nc1ccc(Cl)cc1)c1ccccc1 ?
inactive

Could you kindly confirm the outcome this assay logged for O=[N+]([O-])C=C([SH2+])[SH2+].O=[N+]([O-])C=C([SH2+])[SH2+].[Ni+2].c1ccc(C[P+](c2ccccc2)(c2ccccc2)c2ccccc2)cc1 ?
active

Could you kindly confirm the outcome this assay logged for O=[N+]([O-])/C=C/c1cccc(F)c1 ?
active

Could you kindly confirm the outcome this assay logged for O=[As]c1cccc2ccccc12 (stereo unspecified) ?
active

###

# method: NCI Yeast Anticancer Drug Screen. Data for the cln2 rad14 strain (AID 165)
# run-parameters: S. cerevisiae cln2 rad14 strain, at 50.0 µM
Compounds without any hit were thinned out: in the full panel of roughly 79,000, 15% have a hit. Active and inactive are the calls of the source. Cut-off read from the data, not from the text of the source: active = growth inhibition above about 70%; inactive = the rest.
Just give me one of these, please: t for active, f for inactive

Could you kindly confirm the outcome this assay logged for CC(=O)Oc1ccc([As](=O)(O)O)cc1 ?
f

Could you kindly confirm the outcome this assay logged for CC[PH+](CC)CC[S-].CC[PH+](CC)CC[S-].[Au+].[Au+] ?
f

Could you kindly confirm the outcome this assay logged for CC(=O)O.[RuH].c1ccc([PH+](c2ccccc2)c2ccccc2)cc1.c1ccc([PH+](c2ccccc2)c2ccccc2)cc1.c1ccc([PH+](c2ccccc2)c2ccccc2)cc1 ?
t

Could you kindly confirm the outcome this assay logged for ClCCN(CCCl)CCN1c2ccc3ccccc3c2Sc2ccc3ccccc3c21 ?
f

Could you kindly confirm the outcome this assay logged for CCCCCCCCCCCCCCCC[N+](C)(C)CCOS(C)(=O)=O ?
t

Could you kindly confirm the outcome this assay logged for O=C(N/N=C/c1cc(Br)cc(Br)c1[O-])c1ccccc1O.O=C(N/N=C/c1cc(Br)cc(Br)c1[O-])c1ccccc1O.[Ni+2] ?
f

Could you kindly confirm the outcome this assay logged for CCOP(=O)(CCBr)Oc1ccc([N+](=O)[O-])cc1 (stereo unspecified) ?
f

Could you kindly confirm the outcome this assay logged for O=C(NCCNC(=O)Nc1ccccc1S(=O)(=O)F)Nc1ccccc1S(=O)(=O)F ?
f

Could you kindly confirm the outcome this assay logged for CCOC(CNC(=O)c1ccc(S(=O)(=O)F)cc1)OCC ?
f

Could you kindly confirm the outcome this assay logged for COC1CC(OC2C(C)OC(OC3C(C)OC(OC4C(C)OC(O[C@H]5CC[C@@]6(C)C(=CC[C@]7(O)[C@@H]6C[C@@H](OC(C)=O)[C@@]6(C)[C@]7(O)CC[C@@]6(O)C(C)=O)C5)CC4OC)CC3OC)CC2OC)OC(C)C1O (stereo partly specified) ?
f

Could you kindly confirm the outcome this assay logged for COc1cc(=O)oc(/C=C/C=C/C=C/C(C)=C\C2(C)OC(C)C(C)(O)C2O)c1C (stereo unspecified) ?
f

Could you kindly confirm the outcome this assay logged for O=P(O)(O)C(O)c1ccncc1 (stereo unspecified) ?
f

Could you kindly confirm the outcome this assay logged for CCCCCCCC[As](C)(=O)O ?
f

Could you kindly confirm the outcome this assay logged for Cc1cc(C(C)(C)c2ccc(O)c(C)c2)ccc1O ?
t

Could you kindly confirm the outcome this assay logged for CCCC(C)OP(=O)(OCC)OCC (stereo unspecified) ?
f

Could you kindly confirm the outcome this assay logged for CC(C)OP(=S)(OC(C)C)SSSP(=S)(OC(C)C)OC(C)C ?
f

Could you kindly confirm the outcome this assay logged for [CH3][Sn]([CH3])([Cl])[S]CCN ?
f

Could you kindly confirm the outcome this assay logged for [Cl][Sn]([CH2]c1ccccc1)([CH2]c1ccccc1)[CH2]c1ccccc1 ?
t

Could you kindly confirm the outcome this assay logged for COc1ccc(O)c(/C=C/[N+](=O)[O-])c1 ?
t

Could you kindly confirm the outcome this assay logged for CCOC(=O)C(C(=O)OCC)P(=S)(S)c1ccccc1 (stereo unspecified) ?
f

Could you kindly confirm the outcome this assay logged for CC1(C)CC(OP(=O)(Cl)OC2CC(C)(C)N(O)C(C)(C)C2)CC(C)(C)N1O ?
f
